TEST_SYSTEM: human serotonin transporter (h-SERT) (Homo sapiens)
Construct: expressed in transfected cells; host or cells: CHO cells (h-SERT/CHO), Geneticin-selected
Sequence (P31645 whole entry): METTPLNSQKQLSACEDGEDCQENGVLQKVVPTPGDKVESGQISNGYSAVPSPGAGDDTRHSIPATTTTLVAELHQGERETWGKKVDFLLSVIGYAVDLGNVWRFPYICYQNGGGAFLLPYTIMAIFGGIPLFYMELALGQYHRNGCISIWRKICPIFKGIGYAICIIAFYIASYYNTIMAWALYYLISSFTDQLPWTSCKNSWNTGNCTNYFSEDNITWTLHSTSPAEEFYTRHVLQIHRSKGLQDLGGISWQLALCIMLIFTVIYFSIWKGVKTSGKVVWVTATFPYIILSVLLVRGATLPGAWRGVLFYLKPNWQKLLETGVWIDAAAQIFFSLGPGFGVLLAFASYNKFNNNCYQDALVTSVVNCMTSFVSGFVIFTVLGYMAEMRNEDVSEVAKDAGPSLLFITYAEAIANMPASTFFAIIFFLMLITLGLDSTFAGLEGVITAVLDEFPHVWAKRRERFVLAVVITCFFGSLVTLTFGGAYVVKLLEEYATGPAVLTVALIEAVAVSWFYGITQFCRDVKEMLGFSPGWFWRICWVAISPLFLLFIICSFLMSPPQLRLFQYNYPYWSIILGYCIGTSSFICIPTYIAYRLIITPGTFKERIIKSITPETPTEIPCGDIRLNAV
PROTOCOL_DESCRIPTION: Screening test using [3H]citalopram binding for evaluating human serotonin reuptake inhibitory effect
CONDITION_SUMMARY: h-SERT/CHO membrane preparation, [3H]citalopram approximately 2 nM, room temperature 60 minutes; read-out: Test Example 1: h-SERT binding inhibition constant (Ki)
QUANTITY_KIND: Ki (nM)

SMILES_RECORD: COCCOc1cc(CC2CCN(CCc3ccc4c(c3)C(=O)CCO4)CC2)ccc1Cl
QUANTITY_KIND: Ki
UNIT_ABBREV: nM
TEST_VALUE: 2.7
//
SMILES_RECORD: COCCOc1cc(CC2CCN(CCc3ccc4c(c3)C(=O)CCC4)CC2)ccc1Br
QUANTITY_KIND: Ki
UNIT_ABBREV: nM
TEST_VALUE: 0.7
//
SMILES_RECORD: COCCOc1cc(Br)cc(CC2CCN(CCc3ccc4c(c3)C(=O)CC4)CC2)c1
QUANTITY_KIND: Ki
UNIT_ABBREV: nM
TEST_VALUE: 3.2
//
SMILES_RECORD: COCCOc1cc(Cl)cc(CC2CCN(CCc3ccc4c(c3)C(=O)CC4)CC2)c1
QUANTITY_KIND: Ki
UNIT_ABBREV: nM
TEST_VALUE: 3

This collection of values is drawn from patent US8557998B2.
